# tested.system: Recombinant human NK3 (hNK3) receptor (Homo sapiens)
# Construct: expressed in transfected cells
# Sequence (P29371 whole entry): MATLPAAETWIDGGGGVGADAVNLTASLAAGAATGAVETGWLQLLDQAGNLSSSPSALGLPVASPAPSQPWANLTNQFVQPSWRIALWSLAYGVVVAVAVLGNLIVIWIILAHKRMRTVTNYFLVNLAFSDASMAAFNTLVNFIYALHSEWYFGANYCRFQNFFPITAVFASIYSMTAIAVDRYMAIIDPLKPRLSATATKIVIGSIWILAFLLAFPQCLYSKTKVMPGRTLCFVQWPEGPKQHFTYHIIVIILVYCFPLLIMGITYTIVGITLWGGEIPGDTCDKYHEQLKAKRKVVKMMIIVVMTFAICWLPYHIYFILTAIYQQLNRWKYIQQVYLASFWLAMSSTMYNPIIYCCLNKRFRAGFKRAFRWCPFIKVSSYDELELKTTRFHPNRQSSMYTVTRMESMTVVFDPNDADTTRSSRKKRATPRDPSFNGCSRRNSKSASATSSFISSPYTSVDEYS
# protocol.notes: NK3 receptor binding, [3H]SR142801 displacement, membrane preparations
# setup.conditions: second value of the cell pKi NK1/NK3; hNK3 receptor, [3H]SR142801
measured.parameter: Ki (nM)

Previously resolved entries follow.
# compound, measured.parameter, reading
records = [
    ("Cc1ccc(-c2cc(N3C[C@H](O)C[C@H]3CO)ncc2N(C)C(=O)C(C)(C)c2cc(C(F)(F)F)cc(C(F)(F)F)c2)cc1 [Example 200]", "Ki", 18.2),
    ("CC(=O)N(C)[C@@H]1CCN(c2cc(-c3ccc(F)cc3C)c(N(C)C(=O)C(C)(C)c3cc(C(F)(F)F)cc(C(F)(F)F)c3)cn2)C1 [Example 101]", "Ki", 9.33),
]

[1] CN(C(=O)C(C)(C)c1cc(C(F)(F)F)cc(C(F)(F)F)c1)c1cnc(N(CCO)CCO)cc1-c1ccc(F)cc1 [Example 88]
[2] COc1cc(Cl)cc(C(C)(C)C(=O)N(C)c2cnc(N3C[C@H](O)C[C@H]3CO)cc2-c2ccccc2Cl)c1 [Example 8]
# input Quick one: lower Ki, 1 or 2 ? Please identify the chosen entry by its label.
# output 2

====

# tested.system: Recombinant human NK3 (hNK3) receptor (Homo sapiens)
# Construct: expressed in transfected cells
# protocol.notes: NK3 receptor binding, [3H]SR142801 displacement, membrane preparations
# setup.conditions: second value of the cell pKi NK1/NK3; hNK3 receptor, [3H]SR142801
measured.parameter: Ki (nM)

# compound, tested.system, reading
data = [
    ("Cc1ccccc1-c1cc(N2C[C@H](O)C[C@@H](O)C2)ncc1N(C)C(=O)C(C)(C)c1cc(C(F)(F)F)cc(C(F)(F)F)c1 [Example 179]", "Recombinant human NK3 (hNK3) receptor (Homo sapiens)", 4.07),
]

[1] Cc1ccccc1-c1cc(NC[C@@H](O)CO)ncc1N(C)C(=O)C(C)(C)c1cc(C(F)(F)F)cc(C(F)(F)F)c1 [Example 123]
[2] Cc1ccccc1-c1cc(NC[C@@H](C)O)ncc1N(C)C(=O)C(C)(C)c1cc(C(F)(F)F)cc(C(F)(F)F)c1 [Example 173]
# input From the recorded data, which exceeds the other in Ki: 1 or 2 ? Please identify the chosen entry by its label.
# output 1

====

# tested.system: human NK1 receptor (Homo sapiens, UniProt P25103)
# Sequence (P25103 whole entry): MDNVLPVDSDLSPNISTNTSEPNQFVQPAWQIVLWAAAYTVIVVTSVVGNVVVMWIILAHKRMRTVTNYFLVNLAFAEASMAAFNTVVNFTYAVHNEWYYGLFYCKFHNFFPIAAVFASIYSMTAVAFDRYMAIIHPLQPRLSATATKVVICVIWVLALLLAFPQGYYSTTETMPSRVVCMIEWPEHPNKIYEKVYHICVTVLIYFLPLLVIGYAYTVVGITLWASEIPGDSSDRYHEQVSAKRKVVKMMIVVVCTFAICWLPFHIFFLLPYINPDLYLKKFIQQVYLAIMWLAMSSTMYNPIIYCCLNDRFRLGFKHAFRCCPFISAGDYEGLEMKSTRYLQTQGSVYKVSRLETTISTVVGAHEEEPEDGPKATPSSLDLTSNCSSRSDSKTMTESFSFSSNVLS
# protocol.notes: NK1 receptor binding, [3H]substance P displacement, CHO cell membranes
# setup.conditions: first value of the cell NK1/NK3; read-out: pKi NK1 (converted)
measured.parameter: Ki (nM)

# line.notation, tested.system, Ki (nM)
records = [
    ("CN(C(=O)C(C)(C)c1cc(C(F)(F)F)cc(C(F)(F)F)c1)c1cnc(N2C[C@H](O)C[C@H]2CO)cc1-c1ccccc1N", "human NK1 receptor (Homo sapiens, UniProt P25103)", 0.661),
    ("CN(C(=O)C(C)(C)c1cc(C(F)(F)F)cc(C(F)(F)F)c1)c1cnc(N2C[C@H](O)C[C@H]2CO)cc1-c1ncccc1Cl", "human NK1 receptor (Homo sapiens, UniProt P25103)", 2.19),
]

[I] CN(C(=O)C(C)(C)c1cc(C(F)(F)F)cc(C(F)(F)F)c1)c1cnc(N2CC[C@H](O)[C@H]2CO)cc1-c1ccccc1C(F)(F)F
[II] Cc1ccncc1-c1cc(N(C)CCO)ncc1N(C)C(=O)C(C)(C)c1cc(C(F)(F)F)cc(C(F)(F)F)c1
# input Quick one: lower Ki, I or II ? Please identify the chosen entry by its label.
# output II
(II: 5.13 nM, I: 7.94 nM)
